Reported values of combination Emax for individual entries
# System: KYSE-70 (Esophageal Squamous Cell Carcinoma)
# run_description: combination Emax (second highest fraction inhibited in the dose matrix, 72 h); higher = more inhibition; extreme values may be limits of the assay
endpoint_label: combination Emax

>>> result("CC(=O)c1c(C)c2cnc(Nc3ccc(N4CCNCC4)cn3)nc2n(C2CCCC2)c1=O [Palbociclib] + Cc1c2c(nn1C)CSCc1cc(n(C)n1)CSc1cc(c3ccccc3c1)OCCCc1c(C(=O)O)n(C)c3c-2c(Cl)ccc13 [AZD5991] (first compound max 10 µM, 7x7, partner max 1 µM)")
0.157
>>> result("O=C(c1cc(Cc2n[nH]c(=O)c3ccccc23)ccc1F)N1CCN(C(=O)C2CC2)CC1 [Olaparib] + COc1nnc2ccc(N3CCC(c4ccc(OCCN5CCN(C)C(=O)[C@H]5C)cc4)CC3)nn12 [AZD5153] (first compound max 10 µM, 7x7, partner max 1 µM)")
0.389
>>> result("N#Cc1cnc(Nc2cc(NC[C@H]3CNCCO3)c(C(F)(F)F)cn2)cn1 [SRA737] + Nc1ccn([C@@H]2O[C@H](CO)[C@@H](O)C2(F)F)c(=O)n1 [Gemcitabine] (first compound max 10 µM, 7x7, partner max 0.3 µM)")
0.643
>>> result("COc1cccc(OCCCN)c1-c1cc(Nc2cnc(C#N)cn2)n[nH]1 [Prexasertib] + CCc1c2c(nc3ccc(O)cc13)-c1cc3c(c(=O)n1C2)COC(=O)[C@]3(O)CC [SN-38] (first compound max 1 µM, 7x7, partner max 0.3 µM)")
0.869

* * *

# System: Becker (Low Grade Glioma)
# run_description: Bliss excess, mean over the matrix (fraction); higher = more synergy
endpoint_label: Bliss excess

>>> result_number("Cc1c2c(nn1C)CSCc1cc(n(C)n1)CSc1cc(c3ccccc3c1)OCCCc1c(C(=O)O)n(C)c3c-2c(Cl)ccc13 [AZD5991] + C[C@@H]1COCCN1C2=NC(=NC(=C2)C3(CC3)[S@](=N)(=O)C)C4=C5C=CNC5=NC=C4 [AZD6738] (first compound max 1 µM, 7x7, partner max 10 µM)")
0.0152
>>> result_number("CC1(C)CCC(CN2CCN(c3ccc(C(=O)NS(=O)(=O)c4ccc(NCC5CCOCC5)c([N+](=O)[O-])c4)c(Oc4cnc5[nH]ccc5c4)c3)CC2)=C(c2ccc(Cl)cc2)C1 [Venetoclax] + Cn1cnc2c(F)c(Nc3ccc(Br)cc3Cl)c(C(=O)NOCCO)cc21 [Selumetinib] (first compound max 1 µM, 7x7, partner max 3 µM)")
-0.008
>>> result_number("Cc1c2c(nn1C)CSCc1cc(n(C)n1)CSc1cc(c3ccccc3c1)OCCCc1c(C(=O)O)n(C)c3c-2c(Cl)ccc13 [AZD5991] + C[C@@H](Nc1cc(F)cc(F)c1)c1cc(C(=O)N(C)C)cc2c(=O)cc(N3CCOCC3)oc12 [AZD8186] (first compound max 1 µM, 7x7, partner max 3 µM)")
0.0192

* * *

Bliss excess reference
# Tested on: FLO-1 (Esophageal Adenocarcinoma)
# run_description: Bliss excess, mean over the matrix (fraction); higher = more synergy
endpoint_label: Bliss excess

>>> result_number("Cc1c2c(nn1C)CSCc1cc(n(C)n1)CSc1cc(c3ccccc3c1)OCCCc1c(C(=O)O)n(C)c3c-2c(Cl)ccc13 [AZD5991] + Cc1cc2ncnn2cc1Nc1ncc2c(n1)n(C1CCOCC1)c(=O)n2C [AZD7648] (first compound max 1 µM, 7x7, partner max 10 µM)")
-0.0408
>>> result_number("COc1nnc2ccc(N3CCC(c4ccc(OCCN5CCN(C)C(=O)[C@H]5C)cc4)CC3)nn12 [AZD5153] + C=CCn1c(=O)c2cnc(Nc3ccc(N4CCN(C)CC4)cc3)nc2n1-c1cccc(C(C)(C)O)n1 [AZD1775] (first compound max 1 µM, partner max 1 µM)")
0.0001
>>> result_number("Cc1cc2ncnn2cc1Nc1ncc2c(n1)n(C1CCOCC1)c(=O)n2C [AZD7648] + CCN(CCO)CCCOc1ccc2c(Nc3cc(CC(=O)Nc4cccc(F)c4)[nH]n3)ncnc2c1 [AZD2811] (first compound max 10 µM, 7x7, partner max 1 µM)")
0.0161
>>> result_number("C=CCn1c(=O)c2cnc(Nc3ccc(N4CCN(C)CC4)cc3)nc2n1-c1cccc(C(C)(C)O)n1 [AZD1775] + O=C(c1cc(Cc2n[nH]c(=O)c3ccccc23)ccc1F)N1CCN(C(=O)C2CC2)CC1 [Olaparib] (first compound max 1 µM, partner max 10 µM)")
-0.0673
>>> result_number("Cn1cnc2c(F)c(Nc3ccc(Br)cc3Cl)c(C(=O)NOCCO)cc21 [Selumetinib] + C[C@@H]1COCCN1C2=NC(=NC(=C2)C3(CC3)[S@](=N)(=O)C)C4=C5C=CNC5=NC=C4 [AZD6738] (first compound max 10 µM, 7x7, partner max 10 µM)")
-0.0137
>>> result_number("CCN(CCO)CCCOc1ccc2c(Nc3cc(CC(=O)Nc4cccc(F)c4)[nH]n3)ncnc2c1 [AZD2811] + C=CCn1c(=O)c2cnc(Nc3ccc(N4CCN(C)CC4)cc3)nc2n1-c1cccc(C(C)(C)O)n1 [AZD1775] (first compound max 1 µM, partner max 1 µM)")
-0.0162
>>> result_number("CN(CCO)CC[C@H](CSc1ccccc1)Nc1ccc(S(=O)(=O)NC(=O)c2ccc(N3CCC([C@@H](O)c4ccccc4-c4ccc(Cl)cc4)CC3)cc2)cc1S(=O)(=O)C(F)(F)F [AZD4320] + Nc1ccn([C@@H]2O[C@H](CO)[C@@H](O)C2(F)F)c(=O)n1 [Gemcitabine] (first compound max 1 µM, 7x7, partner max 0.3 µM)")
0.0443

Data provenance is the supplement of paper PMC11061612.
